target or system: UniProt:P9WKE1
Sequence (P9WKE1 whole entry): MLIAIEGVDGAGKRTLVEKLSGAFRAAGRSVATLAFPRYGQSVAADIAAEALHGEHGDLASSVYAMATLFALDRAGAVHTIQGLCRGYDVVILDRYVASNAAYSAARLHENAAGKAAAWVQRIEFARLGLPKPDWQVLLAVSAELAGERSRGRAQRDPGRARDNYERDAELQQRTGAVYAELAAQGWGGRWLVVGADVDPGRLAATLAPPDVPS
pKi: −log10 of the molar value.
Yes means recorded pKi is 6 or above; No means it is below 6.

Reference set (5 entries):
INSERT INTO assay_data (compound, target_or_system, discrete_label) VALUES
  ('Cc1cn(C/C=C/CN2C(=O)c3cccc4cccc2c34)c(=O)[nH]c1=O', 'UniProt:P9WKE1', 'Yes'),
  ('CC(=O)NC1Cc2cccc3c2n(c(=O)n3C/C=C/Cn2cc(C)c(=O)[nH]c2=O)C1 (stereo not given)', 'UniProt:P9WKE1', 'No'),
  ('Cc1cn(C/C=C/Cn2c(=O)n3c4c(cc(N)cc42)CCC3)c(=O)[nH]c1=O', 'UniProt:P9WKE1', 'No'),
  ('Cc1cn(C/C=C/Cn2c(=O)n3c4c(cccc42)CC(N)C3)c(=O)[nH]c1=O (stereo not given)', 'UniProt:P9WKE1', 'No'),
  ('Cc1cn([C@H]2C[C@H](O)[C@@H](COP(=O)(O)O)O2)c(=O)[nH]c1=O [THYMIDINE MONOPHOSPHATE]', 'UniProt:P9WKE1', 'No');

**Query** Test whether the compound O=c1[nH]c(=O)n(C/C=C/CN2c3cccc4c3N(CCC4)S2(=O)=O)cc1Br records pKi of 6 or higher.
**Result** Yes

**Query** Test whether the compound Cc1cn(C/C=C/CN2c3cccc4cccc(c34)S2(=O)=O)c(=O)[nH]c1=O records pKi of 6 or higher.
**Result** Yes

**Query** Test whether the compound Cc1cn(C/C=C/CN2c3cccc4c3N(CCC4)S2(=O)=O)c(=O)[nH]c1=O records pKi of 6 or higher.
**Result** Yes
